conditions: 313.15 K; 101.33 kPa; Liquid; Pycnometric method
Structures can show the parent of a compound that is named as a salt.
recorded-endpoint: mass density (kg/m3)

[Q] GET /values?readout=mass density&item= CCOC(=O)CC(CC(=O)OCC)(OC(C)=O)C(=O)OCC [triethyl acetyl citrate]
[A] 1124.1

[Q] GET /values?readout=mass density&item= CC(=O)OCC(COC(C)=O)OC(C)=O [glyceryl triethanoate]
[A] 1136.6

[Q] GET /values?readout=mass density&item= CCCCOC(=O)C(C)O (centres undefined) [butyl 2-hydroxypropanoate]
[A] 963.5

[Q] GET /values?readout=mass density&item= CCOC(=O)CC(O)(CC(=O)OCC)C(=O)OCC [triethyl citrate]
[A] 1122.4

* * *

conditions: 323.15 K; 101.33 kPa; Liquid; Pycnometric method
Structures can show the parent of a compound that is named as a salt.
recorded-endpoint: mass density (kg/m3)

[Q] GET /values?readout=mass density&item= CC(=O)OCC(COC(C)=O)OC(C)=O [glyceryl triethanoate]
[A] 1125.7

[Q] GET /values?readout=mass density&item= CCOC(=O)CC(O)(CC(=O)OCC)C(=O)OCC [triethyl citrate]
[A] 1112.1

[Q] GET /values?readout=mass density&item= CCCCOC(=O)C(C)O (centres undefined) [butyl 2-hydroxypropanoate]
[A] 953.9

[Q] GET /values?readout=mass density&item= CCOC(=O)CC(CC(=O)OCC)(OC(C)=O)C(=O)OCC [triethyl acetyl citrate]
[A] 1115.1

* * *

conditions: 338.15 K; 101.33 kPa; Liquid; Capillary tube (Ostwald / Ubbelohde) method
Where a name gives a salt, the structure may show the parent alone.
recorded-endpoint: viscosity (mPa·s)

Worked set:
[Q] GET /values?readout=viscosity&item= CCCCOC(=O)C(C)O (centres undefined) [butyl 2-hydroxypropanoate]
[A] 1.3

[Q] GET /values?readout=viscosity&item= CCOC(=O)CC(CC(=O)OCC)(OC(C)=O)C(=O)OCC [triethyl acetyl citrate]
[A] 7.02

A. CCOC(=O)CC(O)(CC(=O)OCC)C(=O)OCC [triethyl citrate]
B. CC(=O)OCC(COC(C)=O)OC(C)=O [glyceryl triethanoate]
[Q] Which of the two gives a bigger number for viscosity: A or B ? Kindly state the label of the option you pick.
[A] A
(A: 5.71 mPa·s, B: 3.67 mPa·s)

* * *

conditions: 298.15 K; 101.33 kPa; Liquid; Capillary tube (Ostwald / Ubbelohde) method
Where a name gives a salt, the structure may show the parent alone.
recorded-endpoint: viscosity (mPa·s)

Worked set:
[Q] GET /values?readout=viscosity&item= CC(=O)OCC(COC(C)=O)OC(C)=O [glyceryl triethanoate]
[A] 16.36

[Q] GET /values?readout=viscosity&item= CCOC(=O)CC(CC(=O)OCC)(OC(C)=O)C(=O)OCC [triethyl acetyl citrate]
[A] 46.55

a. CCCCOC(=O)C(C)O (centres undefined) [butyl 2-hydroxypropanoate]
b. CCOC(=O)CC(O)(CC(=O)OCC)C(=O)OCC [triethyl citrate]
[Q] Which of the two gives a bigger number for viscosity: a or b ? Kindly state the label of the option you pick.
[A] b
(b: 32.1 mPa·s, a: 3.26 mPa·s)

* * *

details: 323.15 K; 101.33 kPa; Liquid; Capillary tube (Ostwald / Ubbelohde) method
Counter-ions that a name gives are not always drawn.
recorded-endpoint: viscosity (mPa·s)

1. CCOC(=O)CC(O)(CC(=O)OCC)C(=O)OCC [triethyl citrate]
2. CC(=O)OCC(COC(C)=O)OC(C)=O [glyceryl triethanoate]
[Q] Which of the two gives a bigger number for viscosity: 1 or 2 ? Kindly state the label of the option you pick.
[A] 1

A. CCOC(=O)CC(CC(=O)OCC)(OC(C)=O)C(=O)OCC [triethyl acetyl citrate]
B. CCCCOC(=O)C(C)O (centres undefined) [butyl 2-hydroxypropanoate]
[Q] Which entry shows the lesser value of viscosity here, A or B ? Kindly state the label of the option you pick.
[A] B
(B: 1.69 mPa·s, A: 10.95 mPa·s)

* * *

conditions: 338.15 K; 101.33 kPa; Liquid; Pycnometric method
Structures can show the parent of a compound that is named as a salt.
recorded-endpoint: mass density (kg/m3)

[Q] GET /values?readout=mass density&item= CC(=O)OCC(COC(C)=O)OC(C)=O [glyceryl triethanoate]
[A] 1109.4

[Q] GET /values?readout=mass density&item= CCOC(=O)CC(O)(CC(=O)OCC)C(=O)OCC [triethyl citrate]
[A] 1097.3

[Q] GET /values?readout=mass density&item= CCOC(=O)CC(CC(=O)OCC)(OC(C)=O)C(=O)OCC [triethyl acetyl citrate]
[A] 1100.5

[Q] GET /values?readout=mass density&item= CCCCOC(=O)C(C)O (centres undefined) [butyl 2-hydroxypropanoate]
[A] 940.1

* * *

conditions: 328.15 K; 101.33 kPa; Liquid; Pycnometric method
Structures can show the parent of a compound that is named as a salt.
recorded-endpoint: mass density (kg/m3)

[Q] GET /values?readout=mass density&item= CCOC(=O)CC(CC(=O)OCC)(OC(C)=O)C(=O)OCC [triethyl acetyl citrate]
[A] 1110.1

[Q] GET /values?readout=mass density&item= CCOC(=O)CC(O)(CC(=O)OCC)C(=O)OCC [triethyl citrate]
[A] 1106.6

[Q] GET /values?readout=mass density&item= CCCCOC(=O)C(C)O (centres undefined) [butyl 2-hydroxypropanoate]
[A] 948.9

[Q] GET /values?readout=mass density&item= CC(=O)OCC(COC(C)=O)OC(C)=O [glyceryl triethanoate]
[A] 1120.2

* * *

settings: 333.15 K; 101.33 kPa; Liquid; Pycnometric method
Counter-ions that a name gives are not always drawn.
recorded-endpoint: mass density (kg/m3)

[Q] GET /values?readout=mass density&item= CC(=O)OCC(COC(C)=O)OC(C)=O [glyceryl triethanoate]
[A] 1114.8

[Q] GET /values?readout=mass density&item= CCCCOC(=O)C(C)O (centres undefined) [butyl 2-hydroxypropanoate]
[A] 944.1

[Q] GET /values?readout=mass density&item= CCOC(=O)CC(CC(=O)OCC)(OC(C)=O)C(=O)OCC [triethyl acetyl citrate]
[A] 1105.4

[Q] GET /values?readout=mass density&item= CCOC(=O)CC(O)(CC(=O)OCC)C(=O)OCC [triethyl citrate]
[A] 1102.8
